Biological target: 5-HT2A (Homo sapiens, UniProt P28223)
Sequence (P28223 whole entry): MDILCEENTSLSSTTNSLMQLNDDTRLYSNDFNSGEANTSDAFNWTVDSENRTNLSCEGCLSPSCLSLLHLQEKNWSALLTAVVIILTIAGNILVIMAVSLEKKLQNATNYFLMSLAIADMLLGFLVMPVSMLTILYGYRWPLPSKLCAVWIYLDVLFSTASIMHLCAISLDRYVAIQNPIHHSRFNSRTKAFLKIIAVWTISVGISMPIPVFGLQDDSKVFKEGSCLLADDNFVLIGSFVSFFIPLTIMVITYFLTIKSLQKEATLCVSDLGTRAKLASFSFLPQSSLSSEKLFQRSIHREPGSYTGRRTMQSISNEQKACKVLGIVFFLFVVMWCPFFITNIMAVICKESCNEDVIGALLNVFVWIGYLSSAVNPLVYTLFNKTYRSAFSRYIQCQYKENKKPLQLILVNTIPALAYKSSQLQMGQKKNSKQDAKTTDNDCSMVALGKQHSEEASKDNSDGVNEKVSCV
Assay: Calcium mobilization (Ca++ flux) assay, agonist mode, 5-HT2A
Type: cell-based
endpoint_name: pEC50
By convention, pEC50 is the negative base-10 log of a molar concentration.

Answered cases to consult:
CN(CCO)CCc1c[nH]c2ccccc12    7.00
COC(=O)CN(C)CCc1c[nH]c2ccccc12    6.52
COC(=O)C1CCCN1CCc1c[nH]c2ccccc12 (stereo not drawn) [Compound 1, methyl (2-(1H-indol-3-yl)ethyl)prolinate]    6.01

Continue with the next compound.
INPUT: Report pEC50 on 5-HT2A (Homo sapiens, UniProt P28223) for this entry: OCC1CCCN1CCc1c[nH]c2ccccc12 (stereo not drawn)
OUTPUT: 6.99

* * *

Entries and their activation at 30 µM
Target: 5-HT2A (Homo sapiens)
Assay: IPOne (IP1 HTRF) assay, CHO-K1 cells expressing human 5-HT2A
Type: cell-based
Parameters: expressed in transfected cells; host or cells: CHO-K1
Settings: CHO-K1; @30 uM; percentage of reference agonist α-Me-5-HT at its EC100
Report the figure in % without appending any unit label.

Previously resolved entries follow.
C[C@@H](O)[C@@H]1CCCN1CCc1c[nH]c2ccccc12    87.3
OC1CCN(CCc2c[nH]c3ccccc23)C1 (stereo not shown)    42
COC(=O)[C@]1(C)CCCN1CCc1c[nH]c2ccccc12    -6.28

INPUT: State, in one line, measured activation at 30 µM of `CC(C)OC(=O)[C@@H]1CCCN1CCc1c[nH]c2ccccc12`
OUTPUT: 101

INPUT: Please report the measured activation at 30 µM for `COc1cccc2[nH]cc(CCN3CCC[C@H]3CO)c12`
OUTPUT: 90.9

INPUT: Return the recorded activation at 30 µM value; entry: COc1ccc(Br)c2[nH]cc(CCN3CCCC3CO)c12 (stereo not shown)
OUTPUT: 94.1

* * *

The compounds listed here are annotated with their activation at 30 µM.
Biological target: 5-HT2B (Homo sapiens)
Sequence (P41595 whole entry): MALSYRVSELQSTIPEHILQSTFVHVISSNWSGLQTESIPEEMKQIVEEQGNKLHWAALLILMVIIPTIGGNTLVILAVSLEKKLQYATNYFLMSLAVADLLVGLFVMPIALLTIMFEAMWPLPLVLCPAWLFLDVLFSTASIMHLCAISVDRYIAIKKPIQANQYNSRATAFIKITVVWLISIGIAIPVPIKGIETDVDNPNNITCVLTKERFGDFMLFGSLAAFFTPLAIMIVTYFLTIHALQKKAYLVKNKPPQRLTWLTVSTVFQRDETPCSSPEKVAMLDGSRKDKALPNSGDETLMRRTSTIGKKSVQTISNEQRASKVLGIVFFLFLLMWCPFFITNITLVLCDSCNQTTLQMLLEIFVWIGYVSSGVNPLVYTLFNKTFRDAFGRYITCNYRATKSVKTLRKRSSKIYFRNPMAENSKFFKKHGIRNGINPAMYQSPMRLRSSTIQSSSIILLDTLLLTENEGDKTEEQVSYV
Assay: IPOne (IP1 HTRF) assay, CHO-K1 cells expressing human 5-HT2B
Format: cell-based
Parameters: expressed in transfected cells; host or cells: CHO-K1
Conditions: CHO-K1; @30 uM; percentage of reference agonist α-Me-5-HT at its EC100
Write the answer as a number in %, unit excluded.

Below are worked cases with known answers.
C[C@@]1(CO)CCCN1CCc1c[nH]c2ccccc12    25.6
OC[C@@H]1CCCN1CCc1c[nH]c2cccc(O)c12    99.1
OC[C@@H]1CCCN1CCc1c[nH]c2ccc(F)cc12    85.7
OC[C@@H]1CCCN1CCc1c(Br)[nH]c2ccccc12    73
COC(=O)[C@@H]1CCCN1CCc1c[nH]c2ccccc12    91.3

INPUT: Using known records, supply activation at 30 µM for OCC1CCCN1CCc1c(Cl)[nH]c2ccc(F)cc12 (stereo not shown)
OUTPUT: 99.8

INPUT: Identify the reported activation at 30 µM for the following entry. COc1ccc2[nH]cc(CCN3CCCC3CO)c2c1 (stereo not shown)
OUTPUT: 98.8

INPUT: Look up and report measured activation at 30 µM for this entry: `OC[C@@H]1CCCN1CCc1c[nH]c2ccc(OC(F)(F)F)cc12`
OUTPUT: 76.2

INPUT: Quick one: give measured activation at 30 µM for OC1CCN(CCc2c[nH]c3ccccc23)C1 (stereo not shown)
OUTPUT: 28.7

INPUT: Please supply the value of reported activation at 30 µM for the item OCC1CCCN1CCc1c[nH]c2cccc(O)c12 (stereo not shown)
OUTPUT: 96.4
